assay_target: 5-hydroxytryptamine receptor 2A (Homo sapiens, UniProt P28223)
Sequence (P28223 whole entry): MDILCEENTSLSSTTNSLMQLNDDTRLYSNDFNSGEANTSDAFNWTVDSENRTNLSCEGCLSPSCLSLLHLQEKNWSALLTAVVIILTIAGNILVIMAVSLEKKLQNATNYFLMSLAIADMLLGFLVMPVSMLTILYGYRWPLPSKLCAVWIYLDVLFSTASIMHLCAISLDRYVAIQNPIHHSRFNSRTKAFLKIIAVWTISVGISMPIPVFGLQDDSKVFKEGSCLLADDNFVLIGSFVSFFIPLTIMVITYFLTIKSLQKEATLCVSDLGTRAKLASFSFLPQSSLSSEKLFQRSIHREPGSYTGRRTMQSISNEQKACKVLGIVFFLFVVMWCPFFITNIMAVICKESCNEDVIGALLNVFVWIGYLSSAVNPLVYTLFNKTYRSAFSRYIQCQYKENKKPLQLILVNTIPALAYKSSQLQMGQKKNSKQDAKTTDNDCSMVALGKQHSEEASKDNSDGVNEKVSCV
assay_summary: Binding ability of compound at cloned human 5-hydroxytryptamine 2A receptor using [125 I]DOI as radioligand
endpoint: pKi
Answer as the number alone; pKi is minus log10 of concentration in mol/L.

[
  {
    "smiles_string": "C[C@@H](N)Cc1c2c(c(Br)c3c1OCC3)OCC2",
    "assay_target": "5-hydroxytryptamine receptor 2A (Homo sapiens, UniProt P28223)",
    "numeric_value": 9.32
  },
  {
    "smiles_string": "COc1cc(Br)c2c3c1C[C@H](N)C[C@@H]3CO2",
    "assay_target": "5-hydroxytryptamine receptor 2A (Homo sapiens, UniProt P28223)",
    "numeric_value": 7.89
  }
]

Now, please, on to the next molecule.
Can you share its pKi? I mean this molecule: COc1cc(Br)c2c3c1C[C@H](N)C[C@H]3CO2
5.07

---

assay_target: Muscarinic acetylcholine receptor M3 (Rattus norvegicus)
endpoint: K 0.5 (nM)
Could you give me the number in nM? Just the number is fine.

Consider the worked cases shown below.
[
  {
    "compound": "CN1[C@@H]2CC[C@H]1C[C@@H](OC(=O)C(CO)c1ccccc1)C2 (some centres undefined)",
    "endpoint": "K 0.5",
    "numeric_value": 0.6
  },
  {
    "compound": "COc1ccc2c3c1C[C@H](N(C)C)C[C@@H]3CO2",
    "endpoint": "K 0.5",
    "numeric_value": 654
  }
]

Can you share its K 0.5? I mean this compound: COc1cc(Br)c2c3c1C[C@H](N)C[C@@H]3CO2
12

Can you share its K 0.5? I mean this compound: COc1ccc2c3c1C[C@H](N)C[C@@H]3CO2
129

---

Reported K 0.5 for target or system Muscarinic acetylcholine receptor M4 (Rattus norvegicus) (UniProt P08485), by entry.
Could you give me the number in nM? Just the number is fine.

Consider the worked cases shown below.
[
  {
    "compound": "COc1ccc2c3c1C[C@H](N)C[C@@H]3CO2",
    "K 0.5 [nM]": 240
  },
  {
    "compound": "CN1[C@@H]2CC[C@H]1C[C@@H](OC(=O)C(CO)c1ccccc1)C2 (some centres undefined)",
    "K 0.5 [nM]": 0.5
  },
  {
    "compound": "COc1cc(Br)c2c3c1C[C@H](N)C[C@@H]3CO2",
    "K 0.5 [nM]": 30
  }
]

Now, please, on to the next compound.
Could you share what K 0.5 was measured for COc1ccc2c3c1C[C@H](N(C)C)C[C@@H]3CO2 , tested on Muscarinic acetylcholine receptor M4 (Rattus norvegicus) (UniProt P08485)?
913

---

assay_target: 5-hydroxytryptamine receptor 2C (Homo sapiens, UniProt P28335)
Sequence (P28335 whole entry): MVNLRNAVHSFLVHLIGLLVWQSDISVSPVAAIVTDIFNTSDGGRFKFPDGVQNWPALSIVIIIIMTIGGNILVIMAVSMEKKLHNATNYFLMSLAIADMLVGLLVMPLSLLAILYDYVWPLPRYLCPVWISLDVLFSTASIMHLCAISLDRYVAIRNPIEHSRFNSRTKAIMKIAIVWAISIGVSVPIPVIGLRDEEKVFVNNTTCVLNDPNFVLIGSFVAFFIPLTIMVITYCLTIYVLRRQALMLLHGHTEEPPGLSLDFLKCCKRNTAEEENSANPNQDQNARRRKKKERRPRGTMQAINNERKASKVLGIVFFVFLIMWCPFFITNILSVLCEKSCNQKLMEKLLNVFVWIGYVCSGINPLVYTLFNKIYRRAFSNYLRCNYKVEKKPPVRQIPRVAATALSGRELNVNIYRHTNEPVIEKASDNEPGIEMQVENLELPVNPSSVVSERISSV
assay_summary: Binding ability of compound at cloned human 5-hydroxytryptamine 2C receptor using [3H]- mesulergine as radioligand
endpoint: Ki (nM)
Could you give me the number in nM? Just the number is fine.

[
  {
    "smiles_string": "COc1cc(Br)c2c3c1C[C@H](N)C[C@@H]3CO2",
    "Ki / nM": 89.6
  }
]

Now, please, on to the next compound.
Can you share its Ki? I mean this compound: C[C@@H](N)Cc1c2c(c(Br)c3c1OCC3)OCC2
2.28

Sourced from ChEMBL document CHEMBL1131247
